# Procedure summary: Extended stable form screen starting from Form II: solubility of filtrate by TGA
# Assay type: physicochemical
# Condition details: suspension of the solid in solvent, filtrate analysed, 21 °C, organic solvent or mixture, thermodynamic from solid, MIBK/n-heptane (1/4) v/v, about 21° C., 8-11 days, read-out: 8-11 Day Solubility
Property: Solubility (mg/mL)
Express your answer in mg/mL, writing the number without its unit.

response.value for O=C1c2cc(-c3ccc(OC(F)(F)F)cc3)ccc2OCCN1Cc1ncccn1 [Compound I Form II] (field: Solubility) = 35

---

# Procedure summary: Stable form screen of Compound I Form IV (slurry at room temperature)
# Type: physicochemical
# Condition details: slurry of the solid in solvent, organic solvent or mixture, thermodynamic from solid, IPA, read-out: Solubility after 24 h
Property: solubility at 24 h
Could you give the number and then its unit, please?

Record CS(=O)(=O)O.O=C1c2cc(-c3ccc(OC(F)(F)F)cc3)ccc2OCCN1Cc1ncccn1 [Compound I Form IV] . Reported solubility at 24 h: 5420 µg/mL

---

# Procedure summary: Abbreviated stable form screen of Compound I Form V (slurry at room temperature)
# Assay type: physicochemical
# Condition details: slurry of the solid in solvent, organic solvent or mixture, thermodynamic from solid, IPA, solid converted to Form VI
Property: solubility at 3 days (mg/mL)
Value expressed in mg/mL; do not type the unit.

Query O=C1c2cc(-c3ccc(OC(F)(F)F)cc3)ccc2OCCN1Cc1ncccn1.O=S(=O)(O)c1ccccc1 [Compound I Form V] yields solubility at 3 days of 16.1

---

# Procedure summary: Stable form screen of Compound I Form IV (slurry at room temperature)
# Assay type: physicochemical
# Condition details: slurry of the solid in solvent, organic solvent or mixture, thermodynamic from solid, 2-Me-THF, read-out: Solubility after 24 h
Property: solubility at 24 h (µg/mL)
Quick reminder: number only, in µg/mL, skip the unit.

Entry CS(=O)(=O)O.O=C1c2cc(-c3ccc(OC(F)(F)F)cc3)ccc2OCCN1Cc1ncccn1 [Compound I Form IV] — recorded solubility at 24 h = 2300

---

# Procedure summary: Stable form screen of Compound I Form IV (slurry at room temperature)
# Type: physicochemical
# Condition details: slurry of the solid in solvent, organic solvent or mixture, thermodynamic from solid, DCM, read-out: Solubility after 24 h
Property: solubility at 24 h (µg/mL)
Respond numerically; units are µg/mL and should not be typed.

Data point: CS(=O)(=O)O.O=C1c2cc(-c3ccc(OC(F)(F)F)cc3)ccc2OCCN1Cc1ncccn1 [Compound I Form IV] ; solubility at 24 h = 5480

---

# Procedure summary: Stable form screen of Compound I Form IV (slurry at room temperature)
# Assay type: physicochemical
# Condition details: slurry of the solid in solvent, organic solvent or mixture, thermodynamic from solid, MeOH, read-out: Solubility after 24 h
Property: solubility at 24 h (mg/mL)
Give the value in mg/mL but do not write mg/mL after it.

solubility at 24 h for CS(=O)(=O)O.O=C1c2cc(-c3ccc(OC(F)(F)F)cc3)ccc2OCCN1Cc1ncccn1 [Compound I Form IV] is 40.4

---

# Procedure summary: Abbreviated stable form screen of Compound I Form V (slurry at room temperature)
# Type: physicochemical
# Condition details: slurry of the solid in solvent, organic solvent or mixture, thermodynamic from solid, IPAc, solid converted to Form VI
Property: solubility at 3 days

solubility at 3 days reported for this compound O=C1c2cc(-c3ccc(OC(F)(F)F)cc3)ccc2OCCN1Cc1ncccn1.O=S(=O)(O)c1ccccc1 [Compound I Form V] : 2200 µg/mL

---

# Procedure summary: Abbreviated stable form screen of Compound I Form V (slurry at room temperature)
# Assay type: physicochemical
# Condition details: slurry of the solid in solvent, organic solvent or mixture, thermodynamic from solid, MTBE, solid converted to Form VI
Property: solubility at 3 days (µg/mL)
Form entry: value (µg/mL) — number only.

The molecule listed as O=C1c2cc(-c3ccc(OC(F)(F)F)cc3)ccc2OCCN1Cc1ncccn1.O=S(=O)(O)c1ccccc1 [Compound I Form V] has a reported solubility at 3 days of 460

---

# Procedure summary: Extended stable form screen starting from Form II: solubility of filtrate by TGA
# Format: physicochemical
# Condition details: suspension of the solid in solvent, filtrate analysed, 21 °C, organic solvent or mixture, thermodynamic from solid, THF/n-heptane (1/4) v/v, about 21° C., 4-6 days, read-out: 4-6 Days Solubility
Property: Solubility
Field: value (include unit after the number)

For O=C1c2cc(-c3ccc(OC(F)(F)F)cc3)ccc2OCCN1Cc1ncccn1 [Compound I Form II] the compound record lists Solubility as 29 mg/mL

---

# Procedure summary: Dynamic vapor sorption (DVS) analysis
# Type: physicochemical
# Condition details: 90% RH
Property: Moisture uptake at 90% RH (DVS)

Field Moisture uptake at 90% RH (DVS) (entry CS(=O)(=O)O.O=C1c2cc(-c3ccc(OC(F)(F)F)cc3)ccc2OCCN1Cc1ncccn1 [Compound I Form IV] ) reads 1.0 wt %

---

# Procedure summary: Stable form screen of Compound I Form IV (slurry at room temperature)
# Assay type: physicochemical
# Condition details: slurry of the solid in solvent, organic solvent or mixture, thermodynamic from solid, THF, read-out: Solubility after 24 h
Property: solubility at 24 h (µg/mL)
Provide only the numeric value, understood in µg/mL.

Sure, the documented solubility at 24 h for CS(=O)(=O)O.O=C1c2cc(-c3ccc(OC(F)(F)F)cc3)ccc2OCCN1Cc1ncccn1 [Compound I Form IV] is 7940

---

# Procedure summary: Stable form screen of Compound I Form IV (slurry at room temperature)
# Format: physicochemical
# Condition details: slurry of the solid in solvent, organic solvent or mixture, thermodynamic from solid, Toluene, read-out: Solubility after 24 h
Property: solubility at 24 h (µg/mL)
Quick reminder: number only, in µg/mL, skip the unit.

Reported solubility at 24 h of CS(=O)(=O)O.O=C1c2cc(-c3ccc(OC(F)(F)F)cc3)ccc2OCCN1Cc1ncccn1 [Compound I Form IV] : 360

---

# Procedure summary: Stable form screen of Compound I Form IV (slurry at room temperature)
# Assay type: physicochemical
# Condition details: slurry of the solid in solvent, organic solvent or mixture, thermodynamic from solid, MeCN, read-out: Solubility after 24 h
# Description: Compound I Form IV (about 50 mg) was slurried in 0.5-1 mL of solvent and allowed to stir at room temperature for 2 weeks. […] Similar results were observed after 2 weeks of equilibration (Table 15).
Property: solubility at 24 h (µg/mL)
// return numeric value only (unit: µg/mL, not printed)

CS(=O)(=O)O.O=C1c2cc(-c3ccc(OC(F)(F)F)cc3)ccc2OCCN1Cc1ncccn1 [Compound I Form IV] yielded solubility at 24 h of 4820

---

# Procedure summary: Stable form screen of Compound I Form IV (slurry at room temperature)
# Type: physicochemical
# Condition details: slurry of the solid in solvent, organic solvent or mixture, thermodynamic from solid, MEK, read-out: Solubility after 24 h
Property: solubility at 24 h
# answer = value followed by unit

Kindly note the recorded solubility at 24 h for CS(=O)(=O)O.O=C1c2cc(-c3ccc(OC(F)(F)F)cc3)ccc2OCCN1Cc1ncccn1 [Compound I Form IV] , which is 3140 µg/mL

---

# Procedure summary: Stable form screen of Compound I Form IV (slurry at room temperature)
# Assay type: physicochemical
# Condition details: slurry of the solid in solvent, organic solvent or mixture, thermodynamic from solid, IPAc, read-out: Solubility after 24 h
Property: solubility at 24 h (µg/mL)
Quick reminder: number only, in µg/mL, skip the unit.

Lab note: measured solubility at 24 h of CS(=O)(=O)O.O=C1c2cc(-c3ccc(OC(F)(F)F)cc3)ccc2OCCN1Cc1ncccn1 [Compound I Form IV] was 780

---

# Procedure summary: Stable form screen of Compound I Form IV (slurry at room temperature)
# Type: physicochemical
# Condition details: slurry of the solid in solvent, organic solvent or mixture, thermodynamic from solid, Acetone, read-out: Solubility after 24 h
Property: solubility at 24 h (µg/mL)
Report only the number, with the unit µg/mL understood.

Item: CS(=O)(=O)O.O=C1c2cc(-c3ccc(OC(F)(F)F)cc3)ccc2OCCN1Cc1ncccn1 [Compound I Form IV] | solubility at 24 h: 4160

---

# Procedure summary: Extended stable form screen starting from Form II: solubility of filtrate by TGA
# Format: physicochemical
# Condition details: suspension of the solid in solvent, filtrate analysed, 21 °C, organic solvent or mixture, thermodynamic from solid, Ethanol/n-heptane (1/4) v/v, about 21° C., 4-6 days, read-out: 4-6 Days Solubility
Property: Solubility (mg/mL)
Lab book: enter the figure in mg/mL, no units written.

O=C1c2cc(-c3ccc(OC(F)(F)F)cc3)ccc2OCCN1Cc1ncccn1 [Compound I Form II] yielded Solubility of 32

---

# Procedure summary: Dynamic vapor sorption (DVS) analysis
# Assay type: physicochemical

Compound	Hygroscopicity by DVS (in words)
O=C1c2cc(-c3ccc(OC(F)(F)F)cc3)ccc2OCCN1Cc1ncccn1.O=S(=O)(O)c1ccccc1 [Compound I Form VI]	non-hygroscopic
O=C(O)C(=O)O.O=C1c2cc(-c3ccc(OC(F)(F)F)cc3)ccc2OCCN1Cc1ncccn1 [Compound I Form XVIII]	non-hygroscopic
